Source listed as patent US12421225B2.

Molecular target: human Nav1.5 (Homo sapiens (Human))
Sequence (Q14524 whole entry): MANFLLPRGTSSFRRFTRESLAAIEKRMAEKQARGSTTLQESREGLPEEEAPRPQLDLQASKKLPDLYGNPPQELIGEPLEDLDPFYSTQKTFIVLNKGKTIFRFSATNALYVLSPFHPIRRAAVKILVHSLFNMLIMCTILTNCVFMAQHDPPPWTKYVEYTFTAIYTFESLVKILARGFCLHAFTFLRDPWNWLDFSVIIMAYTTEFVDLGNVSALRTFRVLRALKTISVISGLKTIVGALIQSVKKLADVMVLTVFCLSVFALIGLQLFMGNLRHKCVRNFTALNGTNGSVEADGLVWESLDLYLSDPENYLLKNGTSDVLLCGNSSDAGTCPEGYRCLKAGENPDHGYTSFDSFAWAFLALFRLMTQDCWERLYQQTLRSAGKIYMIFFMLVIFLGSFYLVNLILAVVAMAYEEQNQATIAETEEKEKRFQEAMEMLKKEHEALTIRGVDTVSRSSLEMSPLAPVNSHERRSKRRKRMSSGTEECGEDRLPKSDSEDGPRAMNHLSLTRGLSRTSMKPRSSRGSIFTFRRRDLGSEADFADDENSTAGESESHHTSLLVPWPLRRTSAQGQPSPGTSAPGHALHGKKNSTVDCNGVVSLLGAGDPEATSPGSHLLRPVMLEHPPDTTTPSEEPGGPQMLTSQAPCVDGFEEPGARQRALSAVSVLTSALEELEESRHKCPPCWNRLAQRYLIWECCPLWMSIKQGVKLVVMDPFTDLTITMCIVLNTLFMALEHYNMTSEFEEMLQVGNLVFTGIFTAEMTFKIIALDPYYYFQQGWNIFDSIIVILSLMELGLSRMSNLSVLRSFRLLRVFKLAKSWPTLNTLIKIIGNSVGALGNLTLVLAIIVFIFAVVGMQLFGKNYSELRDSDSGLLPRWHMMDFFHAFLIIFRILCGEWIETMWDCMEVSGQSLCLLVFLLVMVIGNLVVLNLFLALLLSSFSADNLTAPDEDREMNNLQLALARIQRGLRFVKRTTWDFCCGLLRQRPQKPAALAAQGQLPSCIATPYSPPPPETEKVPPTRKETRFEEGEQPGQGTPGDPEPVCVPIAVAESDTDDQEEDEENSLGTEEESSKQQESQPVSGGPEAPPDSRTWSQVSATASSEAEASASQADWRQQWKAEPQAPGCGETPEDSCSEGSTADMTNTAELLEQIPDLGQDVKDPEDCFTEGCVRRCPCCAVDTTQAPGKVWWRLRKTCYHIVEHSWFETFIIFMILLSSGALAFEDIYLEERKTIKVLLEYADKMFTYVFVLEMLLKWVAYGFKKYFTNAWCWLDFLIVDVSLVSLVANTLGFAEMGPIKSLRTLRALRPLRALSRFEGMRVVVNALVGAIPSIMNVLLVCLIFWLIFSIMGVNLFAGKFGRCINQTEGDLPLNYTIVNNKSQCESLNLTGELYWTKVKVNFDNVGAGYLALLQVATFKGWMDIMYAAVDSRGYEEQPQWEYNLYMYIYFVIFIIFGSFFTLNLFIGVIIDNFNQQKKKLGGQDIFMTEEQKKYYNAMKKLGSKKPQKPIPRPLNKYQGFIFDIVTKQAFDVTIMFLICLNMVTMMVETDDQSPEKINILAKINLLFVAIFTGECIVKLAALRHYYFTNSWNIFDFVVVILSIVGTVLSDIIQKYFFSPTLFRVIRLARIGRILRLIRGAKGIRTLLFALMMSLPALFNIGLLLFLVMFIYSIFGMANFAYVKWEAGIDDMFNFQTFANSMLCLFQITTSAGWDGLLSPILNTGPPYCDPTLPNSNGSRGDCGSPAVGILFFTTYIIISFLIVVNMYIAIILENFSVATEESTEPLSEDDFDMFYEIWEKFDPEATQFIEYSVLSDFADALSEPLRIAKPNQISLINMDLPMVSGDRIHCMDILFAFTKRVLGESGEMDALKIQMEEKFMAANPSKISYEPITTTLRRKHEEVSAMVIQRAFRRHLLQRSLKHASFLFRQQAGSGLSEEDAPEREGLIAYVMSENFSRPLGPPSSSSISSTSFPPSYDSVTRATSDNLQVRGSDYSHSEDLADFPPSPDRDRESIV
Assay: Human Nav1.5 inhibitory activity evaluation (automated patch clamp QPatch16X, HEK293 cells stably expressing human Nav1.5)
Assay type: cell-based
Details: HEK293 cells stably expressing human Nav1.5, automated patch clamp QPatch16X
For each record, write down the corresponding IC50.

Here are 10 compounds together with their reported answers.
Query block: For the compound O=C(c1cn2c(n1)CNC(c1ccccc1)C2)N1CCOC(c2cccc(C(F)(F)F)c2)C1 (stereo not drawn) [Example 61] , what IC50 is on record?
Result block: ≥ 3000 nM

Query block: For the compound COc1cccc(-c2c(C(=O)N[C@H]3COc4ccc(Cl)cc4C3)nc3n2CCOC3)n1 [Example 65] , what IC50 is on record?
Result block: < 1000 nM

Query block: For the compound CN1Cc2nc(C(=O)N[C@H]3COc4ccccc4C3)cn2CC1CCC1CCCC1 (stereo partly drawn) [Example 52] , what IC50 is on record?
Result block: 1000 to 3000 nM

Query block: For the compound CCOCC1CCn2nc(C(=O)N[C@H]3COc4ccc(-c5ccccn5)cc4C3)cc2O1 (stereo partly drawn) [Example 123] , what IC50 is on record?
Result block: ≥ 3000 nM

Query block: For the compound O=C(c1cn2c(n1)CCC(CCc1ccccc1)C2)N1CCC(Oc2ccccn2)C1 (stereo not drawn) [Example 29] , what IC50 is on record?
Result block: 1000 to 3000 nM

Query block: For the compound O=C(N[C@H]1COc2ccc(COC3CCOCC3)cc2C1)c1cc2n(n1)CCC(c1ccccc1F)O2 (stereo partly drawn) [Example 84] , what IC50 is on record?
Result block: ≥ 3000 nM

Query block: For the compound O=C(N[C@H]1COc2ccc(Cl)cc2C1)c1cn2c(n1)CCC(OCC(F)(F)F)C2 (single isomer, unassigned) [39 (isomer A)] , what IC50 is on record?
Result block: 1000 to 3000 nM

Query block: For the compound O=C(N[C@H]1COc2ccccc2C1)c1cn2c(n1)CNC(CCCc1ccccc1)C2 (stereo partly drawn) [Example 55] , what IC50 is on record?
Result block: 1000 to 3000 nM

Query block: For the compound O=C(NC1COc2ccc(Br)cc2C1)c1cn2c(n1)CCC(C(F)(F)F)C2 (stereo not drawn) [Example 12] , what IC50 is on record?
Result block: 1000 to 3000 nM

Query block: For the compound CC(C)(C)C1CCc2nc(C(=O)N[C@H]3COc4ccccc4C3)cn2C1 (stereo partly drawn) [Example 36] , what IC50 is on record?
Result block: ≥ 3000 nM

Each of the following entries comes with a recorded value; kindly state IC50 for each.
1. O=C(N[C@H]1COc2ccc(CC(F)F)cc2C1)c1cc2n(n1)CCC(COCC1CC1)O2 (stereo partly drawn) [Example 108]
2. O=C(N[C@H]1COc2ccc(-c3ccncc3)cc2C1)c1cc2n(n1)CCC(c1ccccc1F)O2 (stereo partly drawn) [Example 80]
3. COc1cccc(OC2CCN(C(=O)c3cn4c(n3)CCC(C3CCCC3)C4)C2)n1 (stereo not drawn) [Example 28]
4. N#Cc1ccc2c(c1)C[C@@H](NC(=O)c1cc3n(n1)CCC(COCC1CC1)O3)CO2 (single isomer, unassigned) [103 (isomer B)]
5. O=C(N[C@H]1COc2ccc(-c3ccccn3)cc2C1)c1cc2n(n1)CCC(COCC(F)(F)F)O2 (single isomer, unassigned) [131 (isomer B)]
6. N#Cc1ccc2c(c1)C[C@@H](NC(=O)c1cc3n(n1)CCC(c1ccccc1C#N)O3)CO2 (stereo partly drawn) [Example 72]

Result block:
1. 1000 to 3000 nM
2. ≥ 3000 nM
3. ≥ 3000 nM
4. ≥ 3000 nM
5. ≥ 3000 nM
6. ≥ 3000 nM

Each of the following entries comes with a recorded value; kindly state IC50 for each.
1. CCCOCC1CCn2nc(C(=O)N[C@H]3COc4ccc(C#N)cc4C3)cc2O1 (single isomer, unassigned) [101 (isomer B)]
2. COc1ncc(C(F)(F)F)cc1C1CCc2nc(C(=O)N3CCOC(c4ccc(F)cc4F)C3)cn2C1 (stereo not drawn) [Example 32]
3. O=C(N[C@H]1COc2ccc(COCC(F)(F)F)cc2C1)c1cc2n(n1)CCC(COCC(F)(F)F)O2 (mixture of isomers) [Example 128]
4. COc1ncccc1C1CCn2nc(C(=O)N[C@H]3COc4ccc(C#N)cc4C3)cc2O1 (stereo partly drawn) [Example 75]
5. O=C(N[C@H]1COc2ccc(Cl)cc2C1)c1cc2n(n1)CCC(COCc1cccc(C(F)(F)F)n1)O2 (stereo partly drawn) [Example 105]
6. O=C(N[C@H]1COc2ccc(Cl)cc2C1)c1cn2c(n1)CCC(OCC(F)(F)F)C2 (stereo partly drawn) [Example 38]
7. O=C(N[C@H]1COc2ccc(C(F)F)cc2C1)c1cn2c(n1)CCC(C(F)(F)F)C2 (stereo partly drawn) [Example 6]
8. O=C(N[C@H]1COc2ccc(CC(F)F)cc2C1)c1cc2n(n1)CCC(COC(F)(F)F)O2 (single isomer, unassigned) [136 (isomer A)]

Result block:
≥ 3000 nM
1000 to 3000 nM
1000 to 3000 nM
≥ 3000 nM
< 1000 nM
≥ 3000 nM
1000 to 3000 nM
< 1000 nM

Each of the following entries comes with a recorded value; kindly state IC50 for each.
1. N#Cc1ccc2c(c1)C[C@@H](NC(=O)c1cc3n(n1)CCC(COC(F)(F)F)O3)CO2 (mixture of isomers) [Example 133]
2. O=C(N[C@H]1COc2ccc(C(F)(F)F)cc2C1)c1nc2n(c1-c1ccccn1)CCOC2 [Example 67]
3. O=C(N[C@H]1COc2ccc(Cl)cc2C1)c1cn2c(n1)CCC(C(F)(F)F)C2 (single isomer, unassigned) [Example 2 (isomer A)]
4. N#Cc1ccc2c(c1)C[C@@H](NC(=O)c1cc3n(n1)CCC(CC1CC1)O3)CO2 (single isomer, unassigned) [97 (isomer B)]
5. CCCC1CCn2nc(C(=O)N[C@H]3COc4ccc(C#N)cc4C3)cc2O1 (stereo partly drawn) [Example 94]
6. O=C(N[C@H]1COc2ccccc2C1)c1cn2c(n1)CNC(C1CCCC1)C2 (stereo partly drawn) [Example 59]

Result block:
1000 to 3000 nM
< 1000 nM
1000 to 3000 nM
≥ 3000 nM
1000 to 3000 nM
≥ 3000 nM
